# TESTED_TARGET: SARS-CoV-2 3CL-protease (Severe acute respiratory syndrome coronavirus 2 (2019-nCoV) (SARS-CoV-2))
# PROCEDURE_DETAILS: SARS-CoV-2 3C-like (3CL) protease fluorescence assay (FRET)
# RUN_CONDITIONS: recombinant SARS-CoV-2 3CL-protease 10 nM, 30 min preincubation, substrate 40 μM, duplicate
MEASUREMENT_LABEL: IC50

Example results:
Request: Specify measured IC50 for Cc1cc(C(=O)N[C@H](C(=O)C[C@@H](Cc2ccc(F)cc2)C(=O)N2C[C@]3(C[C@H]2C#N)C(=O)Nc2ccccc23)C(C)C)no1 [Example 5] .
Response: < 100 nM

Request: Provide IC50 value for the following compound: CCOC(=O)/C=C/[C@@H]1C[C@@]2(CN1C(=O)[C@@H](CC(=O)[C@@H](NC(=O)c1cc(C)on1)C(C)C)Cc1ccc(F)cc1)C(=O)Nc1ccccc12 [Example 6]
Response: > 1000 nM

Request: Answer with reported IC50 of CCOC(=O)/C=C/[C@@H]1C[C@@]2(CN1C(=O)[C@@H](CC(=O)[C@@H](NC(=O)OC(C)(C)C)C(C)C)Cc1ccc(F)cc1)C(=O)Nc1ccccc12 [Example 25]
Response: > 1000 nM

Request: Quickly give me recorded IC50 for CC(C)[C@H](NC(=O)OCc1ccccc1)C(=O)CC(Cc1ccc(F)cc1)C(=O)N1C[C@]2(C[C@H]1C#N)C(=O)Nc1ccccc12 (stereo partly shown) [Example 1]
Response: 100 to 1000 nM

Request: Identify measured IC50 associated with CC(C)[C@H](NC(=O)C(F)(F)F)C(=O)CC(Cc1ccc(F)cc1)C(=O)N1C[C@]2(C[C@H]1C#N)C(=O)Nc1ccccc12 (stereo partly shown) [Example 2]
Response: 100 to 1000 nM

Your task in this section: give IC50 for each listed record.
1. CC(C)CC(CC(=O)[C@@H](NC(=O)OCc1ccccc1)C(C)C)C(=O)N1C[C@]2(C[C@H]1C#N)C(=O)Nc1ccccc12 (stereo partly shown) [Example 3]
2. CC(C)[C@H](NC(=O)OC(C)(C)C)C(=O)C[C@@H](Cc1ccc(F)cc1)C(=O)N1C[C@]2(C[C@H]1C#N)C(=O)Nc1ccccc12 [Example 26]

Response:
1: > 1000 nM; 2: < 100 nM

Hey, just so you know, these numbers are from patent US20230331734A1.
